Provenance of the data: patent US8399462B2

Please go through the items and note down their melting point.

Query: Which value of melting point has been reported for `OCCOc1cccc2c1cnn2-c1ccnc(N[C@H]2CC[C@H](O)CC2)n1` in the records?
Response: 208.2 to 210.2 °C

Query: Which value of melting point has been reported for `CS(=O)(=O)CCCOc1cccc2c(-c3ccnc(N[C@H]4CC[C@H](C(=O)N5CC[C@@H](O)C5)CC4)n3)noc12` in the records?
Response: 224 to 225 °C

Query: Which value of melting point has been reported for `CS(=O)(=O)N[C@H]1CC[C@H](Nc2nccc(-n3ccc4c(F)cccc43)n2)CC1` in the records?
Response: 248.7 to 249.4 °C

Query: Which value of melting point has been reported for `CC(=O)NCc1cccc2c1ccn2-c1ccnc(N[C@H]2CC[C@H](N(C)S(C)(=O)=O)CC2)n1` in the records?
Response: 210.5 to 212 °C

Query: Which value of melting point has been reported for `O=C1c2ccccc2C(=O)N1Cc1cccc2c1ccn2-c1ccnc(N[C@H]2CC[C@H](O)CC2)n1` in the records?
Response: 251.7 to 253 °C

Query: Which value of melting point has been reported for `CS(=O)(=O)N[C@H]1CC[C@H](Nc2nccc(-n3ncc4ccccc43)n2)CC1` in the records?
Response: 269.6 to 270.4 °C

Query: Which value of melting point has been reported for CN(C1CCC(Nc2nccc(-n3cc(S(N)(=O)=O)c4ccccc43)n2)CC1)S(C)(=O)=O (stereo not drawn) in the records?
Response: 246.6 to 248.2 °C

Query: Which value of melting point has been reported for `COc1cccc2c1c(C(N)=O)cn2-c1ccnc(N[C@H]2CC[C@H](N(C)S(C)(=O)=O)CC2)n1` in the records?
Response: 285 to 287 °C

Query: Which value of melting point has been reported for `CS(=O)(=O)N[C@H]1CC[C@H](Nc2nccc(-n3ccc4c(C5(O)CCS(=O)(=O)CC5)cccc43)n2)CC1` in the records?
Response: > 300 °C

Query: Which value of melting point has been reported for `CC(C)(O)[C@H]1CC[C@H](Nc2nccc(-n3cc(C(N)=O)c4ccccc43)n2)CC1` in the records?
Response: 222 to 223 °C

Query: Which value of melting point has been reported for `CS(=O)(=O)N[C@H]1CC[C@H](Nc2ncc(Cl)c(-n3ccc4ccccc43)n2)CC1` in the records?
Response: 203.8 to 204.9 °C

Query: Which value of melting point has been reported for `CN(C)C1CCN(C(=O)[C@H]2CC[C@H](Nc3nccc(-n4ccc5c(OCCCS(N)(=O)=O)cccc54)n3)CC2)CC1` in the records?
Response: 135.7 to 142.7 °C

Query: Which value of melting point has been reported for `CC(C)(O)c1cccc2c1ccn2-c1ccnc(N[C@H]2CC[C@H](N3CCCS3(=O)=O)CC2)n1` in the records?
Response: 206.9 to 207.6 °C

Query: Which value of melting point has been reported for C[C@@H]1CCCN1C(=O)[C@H]1CC[C@H](Nc2nccc(-n3ncc4c(OCCCS(N)(=O)=O)cccc43)n2)CC1 (stereo in doubt) in the records?
Response: 230 to 231 °C

Query: Which value of melting point has been reported for `O=C([C@H]1CC[C@H](Nc2nccc(-n3ccc4c(OCC(F)(F)F)cccc43)n2)CC1)N1CCC(O)CC1` in the records?
Response: 140.7 to 143.3 °C

====

tested-system: Human JNK1α1 (Homo sapiens)
Sequence (P45983 1-384 isoform P45983-2): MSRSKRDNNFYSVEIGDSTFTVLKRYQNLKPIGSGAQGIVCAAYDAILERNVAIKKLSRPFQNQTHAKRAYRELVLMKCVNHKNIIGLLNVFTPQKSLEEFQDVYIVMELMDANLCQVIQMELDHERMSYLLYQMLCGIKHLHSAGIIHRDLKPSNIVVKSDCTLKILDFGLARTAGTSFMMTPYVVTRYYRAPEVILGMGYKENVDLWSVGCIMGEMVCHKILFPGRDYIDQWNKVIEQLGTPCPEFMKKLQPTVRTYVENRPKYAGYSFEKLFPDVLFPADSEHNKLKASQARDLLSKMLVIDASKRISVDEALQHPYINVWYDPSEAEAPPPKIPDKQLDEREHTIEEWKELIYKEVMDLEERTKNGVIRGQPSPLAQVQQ
test-description: JNK assay in vitro (phosphorylation of GST-ATF2 with [γ-33P]ATP), JNK1
Assay type: biochemical
readout-kind: pIC50
Worth noting: pIC50 values are minus log10 of concentrations stated in mol/L.

Query: Please state recorded pIC50 (tested on Human JNK1α1 (Homo sapiens)) of CC(C)C(=O)Nc1cccc2c1ccn2-c1ccnc(N[C@H]2CC[C@H](O)CC2)n1 [Compound 88]
Response: 7.15

Query: Please state recorded pIC50 (tested on Human JNK1α1 (Homo sapiens)) of CC(C)(O)c1cccc2c1ccn2-c1ccnc(N[C@H]2CC[C@H](O)CC2)n1 [Compound 18]
Response: 7.13

Query: Please state recorded pIC50 (tested on Human JNK1α1 (Homo sapiens)) of N#CCOc1cccc2c1cnn2-c1ccnc(N[C@H]2CC[C@H](O)CC2)n1 [Compound 87]
Response: 7.53

Query: Please state recorded pIC50 (tested on Human JNK1α1 (Homo sapiens)) of O=C(NCC(O)CO)[C@H]1CC[C@H](Nc2nccc(-n3ncc4ccccc43)n2)CC1 (stereo partly drawn) [Compound 16]
Response: 7.15

Query: Please state recorded pIC50 (tested on Human JNK1α1 (Homo sapiens)) of O=C(NC(CO)CO)[C@H]1CC[C@H](Nc2nccc(-n3ncc4ccccc43)n2)CC1 [Compound 26]
Response: 7.07

Query: Please state recorded pIC50 (tested on Human JNK1α1 (Homo sapiens)) of CCC(CO)NC(=O)[C@H]1CC[C@H](Nc2nccc(-n3ncc4ccccc43)n2)CC1 (stereo partly drawn) [Compound 15]
Response: 7.17

====

Please go through the items and note down their melting point.

Query: Which value of melting point has been reported for `CS(=O)(=O)N[C@H]1CC[C@H](Nc2nccc(-n3ncc4c(OCCCS(N)(=O)=O)cccc43)n2)CC1` in the records?
Response: 250 to 251 °C

Query: Which value of melting point has been reported for `CS(=O)(=O)CCOCc1cccc2c1ccn2-c1ccnc(N[C@H]2CC[C@H](O)CC2)n1` in the records?
Response: 119.5 to 121 °C

Query: Which value of melting point has been reported for CS(=O)(=O)CCCOc1cccc2c1cnn2-c1ccnc(N[C@H]2CC[C@H](C(=O)N3CC[C@@H](O)C3)CC2)n1 (stereo in doubt) in the records?
Response: 174 to 175 °C

Query: Which value of melting point has been reported for `Cn1nc(-c2ccnc(N[C@H]3CC[C@H](O)CC3)n2)c2ccccc21` in the records?
Response: 180 to 183.3 °C

Query: Which value of melting point has been reported for `CS(=O)(=O)CCCOc1cccc2c1ccn2-c1ccnc(N[C@H]2CC[C@H](CCl)CC2)n1` in the records?
Response: 152 to 155 °C

Query: Which value of melting point has been reported for `CN(C)C(=O)[C@H]1CC[C@H](Nc2nccc(-n3ncc4c(OCc5ccccn5)cccc43)n2)CC1` in the records?
Response: 217.3 to 219 °C

Query: Which value of melting point has been reported for C[C@H]1CCCN1C(=O)[C@H]1CC[C@H](Nc2nccc(-n3ncc4c(OCCCS(N)(=O)=O)cccc43)n2)CC1 (stereo in doubt) in the records?
Response: 230 to 231 °C

Query: Which value of melting point has been reported for `COCCOCc1cccc2c1ccn2-c1ccnc(N[C@H]2CC[C@H](NC(C)=O)CC2)n1` in the records?
Response: 177 to 177.8 °C

====

readout-kind: melting point

Query: Which value of melting point has been reported for `CC(C)(O)c1cccc2c1cnn2-c1ccnc(N[C@H]2CC[C@H](NS(C)(=O)=O)CC2)n1` in the records?
Response: 250 to 251 °C

Query: Which value of melting point has been reported for `CC(C)(O)c1cccc2c1ccn2-c1ccnc(N[C@H]2CC[C@H](NS(=O)(=O)N3CCCC3)CC2)n1` in the records?
Response: 178 to 179 °C

Query: Which value of melting point has been reported for `Cl.N[C@H]1CC[C@H](Nc2nccc(-n3ccc4c(F)cccc43)n2)CC1` in the records?
Response: > 300 °C

Query: Which value of melting point has been reported for `O=C([C@H]1CC[C@H](Nc2nccc(-n3ccc4c(C5(O)CCS(=O)(=O)CC5)cccc43)n2)CC1)N1CCC(O)CC1` in the records?
Response: 271 to 272 °C

Query: Which value of melting point has been reported for `CC(C)(O)c1cccc2c1ccn2-c1ccnc(N[C@H]2CC[C@H](C(=O)NCCS(C)(=O)=O)CC2)n1` in the records?
Response: 208 to 210 °C

Query: Which value of melting point has been reported for `NS(=O)(=O)CCCOc1cccc2c1ccn2-c1ccnc(N[C@H]2CC[C@H](C(=O)N3CCC3)CC2)n1` in the records?
Response: 218.4 to 220.9 °C

====

readout-kind: melting point

Query: Which value of melting point has been reported for `O=C([C@H]1CC[C@H](Nc2nccc(-n3ncc4c(OCCO)cccc43)n2)CC1)N1CCCC1` in the records?
Response: 164 to 166 °C

Query: Which value of melting point has been reported for CC(C#N)c1cccc2c1ccn2-c1ccnc(N[C@H]2CC[C@H](N(C)S(C)(=O)=O)CC2)n1 (stereo partly shown) in the records?
Response: 196 to 197 °C

Query: Which value of melting point has been reported for `CS(=O)(=O)CCCOc1cccc2c(-c3ccnc(N[C@H]4CC[C@H](NS(C)(=O)=O)CC4)n3)noc12` in the records?
Response: 225 to 226 °C

Query: Which value of melting point has been reported for `CC(C)(O)c1cccc2c1ccn2-c1ccnc(N[C@H]2CC[C@H](C(=O)N3CCCC3)CC2)n1` in the records?
Response: 207.8 to 209.8 °C

Query: Which value of melting point has been reported for `CS(=O)(=O)CCCOc1cccc2c1ccn2-c1ccnc(NC2CCC(F)(F)CC2)n1` in the records?
Response: 200 to 201 °C

Query: Which value of melting point has been reported for `CN(C)C1CCN(C(=O)[C@H]2CC[C@H](Nc3nccc(-n4ccc5c(OCCCC(F)(F)F)cccc54)n3)CC2)CC1` in the records?
Response: 179 to 180 °C

Query: Which value of melting point has been reported for CC1(C)OC[C@@H](COc2cccc3c2cnn3-c2ccnc(N[C@H]3CC[C@H](NS(C)(=O)=O)CC3)n2)O1 (stereo in doubt) in the records?
Response: 247 to 247.8 °C

Query: Which value of melting point has been reported for CC(=O)N[C@H]1CC[C@H](Nc2nccc(-n3ncc4c(OC[C@@H]5COC(C)(C)O5)cccc43)n2)CC1 (stereo in doubt) in the records?
Response: 214.5 to 215.5 °C

Query: Which value of melting point has been reported for CC1(C)OC[C@@H](COc2cccc3c2cnn3-c2ccnc(N[C@H]3CC[C@H](C(=O)N4CCCC4)CC3)n2)O1 (stereo in doubt) in the records?
Response: 196 to 198 °C

Query: Which value of melting point has been reported for COc1cccc2c1cnn2-c1ccnc(NC2CCC(NC(C)=O)CC2)n1 (stereo not shown) in the records?
Response: 256.9 to 259.9 °C

Query: Which value of melting point has been reported for `CC(C)(O)c1cccc2c1ccn2-c1ccnc(N[C@H]2CC[C@H](N(CCO)S(C)(=O)=O)CC2)n1` in the records?
Response: 214 to 215 °C

Query: Which value of melting point has been reported for `CS(=O)(=O)CCCOc1cccc2c1ccn2-c1ccnc(N[C@H]2CC[C@H](NS(=O)(=O)CCCN3CCOCC3)CC2)n1` in the records?
Response: 174 to 179.3 °C

Query: Which value of melting point has been reported for C[S+]([O-])CCCOc1cccc2c1ccn2-c1ccnc(N[C@H]2CC[C@H](C(C)(C)O)CC2)n1 (stereo partly shown) in the records?
Response: 190.5 to 191 °C

Query: Which value of melting point has been reported for `CS(=O)(=O)N[C@H]1CC[C@H](Nc2nccc(-n3ccc4c(OCCCC#N)cccc43)n2)CC1` in the records?
Response: 247 to 248 °C

Query: Which value of melting point has been reported for `CS(=O)(=O)CCCOc1cccc2c1ccn2-c1ccnc(N[C@H]2CC[C@H](NC(=O)CCN)CC2)n1.Cl` in the records?
Response: 263 to 264 °C

Query: Which value of melting point has been reported for `OCc1ccc2cnn(-c3ccnc(N[C@H]4CC[C@H](O)CC4)n3)c2c1` in the records?
Response: 216 to 217.7 °C

Query: Which value of melting point has been reported for `CC(=O)N[C@H]1CC[C@H](Nc2ncc(Cl)c(-n3ccc4ccccc43)n2)CC1` in the records?
Response: 263.2 to 263.8 °C

Query: Which value of melting point has been reported for CC(O)CCNC(=O)[C@H]1CC[C@H](Nc2nccc(-n3ncc4ccccc43)n2)CC1 (stereo partly shown) in the records?
Response: 248.5 to 252.5 °C

Query: Which value of melting point has been reported for `CS(=O)(=O)CCCOc1cccc2c1ccn2-c1ccnc(N[C@H]2CC[C@H](C(=O)N3CCC(N)CC3)CC2)n1.Cl` in the records?
Response: 247 to 248 °C
